Recorded values, source PubChem BioAssay.

- method.summary: viability of HCT116 without oncogenic beta-catenin – human colon tumor cells, pilot screen (AID 823);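 note: 0% = wells killed by 20 µM Hyamine and 100% = untreated DMSO cell wells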
- run.conditions: HCT116 beta-catenin knockout viability, CellTiter-Glo, 60 h; at 10 µM; hits give low values
Inconclusive results are not listed. Calls of active or inactive are those of the source.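 Rule for the calls: active = cell viability at or below a set limit in both duplicate runs, the limit being the all-compound median minus 4 SD (cut at about 23% in these data, passing the limit was not always enough); inconclusive = no clear call, values can overlap the other calls; inactive = the rest.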
Measured viability by item

COc1cc2c(cc1OC)CN(C(=O)CSc1nnc3scc(-c4ccccc4)n13)CC2: 99.4% (inactive)

Given O=C(NCc1ccc2c(c1)OCO2)C1CCCN(S(=O)(=O)c2cccc3cccnc23)C1 (centres undefined) , state its recorded viability. 84.9% (inactive)

Try c1ccn2c(SCc3ccc4c(c3)OCCO4)nnc2c1 next. 96.6% (inactive)

Ok, now Cc1cc(=S)cc(C)n1CCCn1ccnc1 103% (inactive)

Now the same for CCC(C)OC(=O)C1=C(C)NC2=C(C(=O)C(C(=O)OC)C(C)C2)C1c1ccc(N(C)C)cc1 (centres undefined) 86% (inactive)
